Overview of recorded growth inhibition for various compounds
- method summary: NCI Yeast Anticancer Drug Screen. Data for the rad50 strain (AID 155);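 note: 0% = growth of vehicle-only cultures of the same strain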
- assay context: S. cerevisiae rad50 strain growth inhibition; at 50.0 µM; hits give high values
The panel holds about 79,000 compounds, 15% with a hit somewhere; the sample as a whole holds those more often.
Field: numeric (%). Do not append units.

Known growth inhibition results, listed for orientation:
[
  {
    "compound": "Oc1cc(Br)cc2cc(Br)cnc12",
    "measurement unit": "%",
    "growth inhibition": 84.4
  },
  {
    "compound": "c1ccc2c(O[Si](Oc3cccc4ccccc34)(Oc3cccc4ccccc34)Oc3cccc4ccccc34)cccc2c1",
    "measurement unit": "%",
    "growth inhibition": 96
  },
  {
    "compound": "Cc1cc(NC(=S)SCc2ccc(F)cc2)c([N+](=O)[O-])cc1C",
    "measurement unit": "%",
    "growth inhibition": 98.7
  },
  {
    "compound": "CC(C)(C)N1OC2(c3ccccc3)OC3N(C(C)(C)C)OC4(c5ccccc5)OC1C2(c1ccccc1)C34c1ccccc1 (stereo not given)",
    "measurement unit": "%",
    "growth inhibition": 93.7
  }
]

Okay, now this compound:
Indicate its recorded growth inhibition; the compound in question is CCN(CC)C(=S)N/N=C(\C)c1cccc(C)n1
88.7

###

growth inhibition: recorded values
- method summary: NCI Yeast Anticancer Drug Screen. Data for the rad50 strain (AID 155);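 note: 0% = growth of vehicle-only cultures of the same strain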
- assay context: S. cerevisiae rad50 strain growth inhibition; at 50.0 µM; hits give high values
The panel holds about 79,000 compounds, 15% with a hit somewhere; the sample as a whole holds those more often.
The response must be a number in % with no trailing unit.

Here are 4 molecules together with their reported answers.
[
  {
    "molecule": "CN(C)C(=S)/N=c1\\ssc(=S)n1-c1ccccc1",
    "growth inhibition / %": -13.9
  },
  {
    "molecule": "COC(=O)C1(C)CC2C(C)(CCC3(C)C4=CC=C5C(=CC(=O)C(O)=C5C)C4(C)CCC23C)CC1O (configuration not stated)",
    "growth inhibition / %": 85.8
  },
  {
    "molecule": "COc1ccccc1NC(=O)CC(=O)N1N=C(C)C(N=Nc2ccc(I)cc2)C1=O (configuration not stated)",
    "growth inhibition / %": 93
  },
  {
    "molecule": "O=[N+]([O-])c1ccccc1NCCO",
    "growth inhibition / %": -10.2
  }
]

// Input: OCCN(CCO)c1cc(/C=C/c2ccnc3ccccc23)nc2ccccc12 . Output its growth inhibition only.
60.5

Quote growth inhibition reported for N/C(=N\OC1(c2ccccc2)OC(=O)C(=O)/C1=C(/O)c1ccccc1)c1ccccc1 (configuration not stated) please.
98

Read off the recorded growth inhibition for CC1=C(C(=S)Nc2ccc(Cl)c(C(=O)OC(C)C)c2)SCCO1
89.6

Provide growth inhibition value for the following molecule: COc1ccc(-c2nc(C)[nH]c(=O)c2Cc2c(O)ccc3ccccc23)cc1
98.5

Fill in growth inhibition for record C1=NC(N(Cc2ccccc2)Cc2ccccc2)N(Cc2ccccc2)N1 (configuration not stated)
92.4

Read the entry C(/Cc1ccc2c(c1)OCO2)=N\NC1=NCCCCN1 and write its reported growth inhibition.
15.7

Please look at this molecule and report its growth inhibition: CCOC(=O)N1C2C=CC(=O)C(C=C2)N1C(=O)OCC (configuration not stated)
72.8

Return the recorded growth inhibition value; entry: O=S(=O)(c1cc(Cl)c(Cl)cc1Cl)N(CCCCCN(S(=O)(=O)c1cc(Cl)c(Cl)cc1Cl)S(=O)(=O)c1cc(Cl)c(Cl)cc1Cl)S(=O)(=O)c1cc(Cl)c(Cl)cc1Cl
98.6

Give recorded growth inhibition. N#CCN1CCCCCc2ccccc21
-26.6

###

- method summary: NCI Yeast Anticancer Drug Screen. Data for the rad50 strain (AID 155);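 note: 0% = growth of vehicle-only cultures of the same strain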
- assay context: S. cerevisiae rad50 strain growth inhibition; at 50.0 µM
About 79,000 compounds went through this panel and 15% of them were active in at least one assay; those are over-represented in the sample as a whole. Calls of active or inactive are those of the source. Cut-off read from the data, not from the text of the source: active = growth inhibition above about 70%; inactive = the rest.
Respond with a class label; see YES = active, NO = inactive

See these solved cases before continuing.
[
  {
    "compound": "COC(=O)c1ccc(CSc2ccc(OC)cc2)cc1",
    "group label": "YES"
  },
  {
    "compound": "Cc1ccc(NC(Nc2ccc(C)cc2C)=C(/C=C(\\Cl)[N+](=O)[O-])[N+](=O)[O-])c(C)c1",
    "group label": "YES"
  },
  {
    "compound": "O=C(Oc1c(Cl)c(Cl)c(Cl)c(Cl)c1Cl)c1ccc(Cl)cc1",
    "group label": "YES"
  }
]

Recorded call for COc1ccc(C2c3cc4c(cc3OC(O)C2C)OCO4)c(OC)c1 (stereo unspecified) ?
YES

Please let me know the test result on file for O=C(/C=N/O)c1c(-c2ccccc2)[nH]c(-c2ccccc2)c1-c1ccccc1 .
YES

Look up the recorded call for NNC(=S)N/N=C(/C(=O)Nc1ccc(Cl)c(Cl)c1)C(C1OC(=O)c2ccccc21)[N+](=O)[O-] (stereo unspecified) in this test.
NO

Give the logged outcome of this assay for the following compound: CCN(CC)CCOc1ccc(C=C2c3ccccc3-c3ccccc32)cc1
YES

Hey, what did the test say about CCOC(=S)SSC(=S)NCCNC(=S)SSC(=S)OCC ?
YES

Recorded call for S=c1n(-c2ccc(Cl)cc2)c2nc3ccccc3nc(/c2=N\Nc2cc(Cl)ccc2Cl)n1-c1ccc(Br)cc1 ?
NO

Give the logged outcome of this assay for the following compound: O=C(O)c1ccc(OCc2ccccc2)c(Cl)c1
NO

In this assay, the call recorded for CCCCN(CCCC)CC(O)c1cc(-c2ccc(Cl)cc2)nc2cc(C)ccc12 (stereo unspecified) was what?
YES

###

- method summary: NCI Yeast Anticancer Drug Screen. Data for the bub3 strain (AID 167)
- assay context: S. cerevisiae bub3 mutant strain, at 50.0 µM
About 79,000 compounds went through this panel and 15% of them were active in at least one assay; those are over-represented in the sample as a whole. Calls of active or inactive are those of the source. Rule as the data show it: active = growth inhibition above about 70%; inactive = the rest.
The reply should be one of these categories: active, inactive

Before answering, review these 4 worked examples.
[
  {
    "compound": "CCOc1ccc(C=Nc2ccc(/C=C(\\C)C(=O)OCCC(C)C)cc2)cc1",
    "group label": "active"
  },
  {
    "compound": "COc1ccc(C2(O)c3ccccc3C(=O)C2c2ccccn2)cc1 (configuration not stated)",
    "group label": "active"
  },
  {
    "compound": "Cc1cc(NC(=S)SCc2ccc(Cl)cc2)ccc1F",
    "group label": "active"
  },
  {
    "compound": "CN(C)CCC(=O)c1ccco1",
    "group label": "active"
  }
]

Pending compound:
Identify the outcome logged in this assay for the compound shown: COc1cc(NCCCCCCCC2CCCCN2)c2ncccc2c1 (configuration not stated)
active

###

- method summary: NCI Yeast Anticancer Drug Screen. Data for the mlh1 rad18 strain (AID 175)
- assay context: S. cerevisiae mlh1 rad18 strain growth inhibition; at 50.0 µM (retest, dose inferred, filed as 5.0); hits give high values
Compounds without any hit were thinned out: in the full panel of roughly 79,000, 15% have a hit.
Assign class by growth inhibition: not lower than 90% means Met; lower than 90% means Not met.

[
  {
    "compound": "CN1CC[N+](C)(Cc2ccc(C[N+]3(C)CC[N+](C)(Cc4ccc(CCl)cc4)CC3)cc2)CC1 (stereo not given)",
    "group label": "Met"
  },
  {
    "compound": "O=C1/C(=C/c2cccc(O)c2)SC(=S)N1/C=C\\c1nc2ccccc2[nH]c1=O",
    "group label": "Not met"
  },
  {
    "compound": "CCCCC(CCCC)=NNC(=S)SC",
    "group label": "Not met"
  }
]

Exam item: decide whether the reported growth inhibition for Cc1ccc(S(=O)(=O)N/N=C2\CC(C)OC3=C2CCCCCC3)cc1 (stereo not given) is at least 90%.
Met

Answer whether growth inhibition of COc1ccc(C2=Nc3cc(C)c(C)cc3NC(c3ccccc3)C2)cc1 (stereo not given) is greater than or equal to 90%.
Not met

###

- method summary: NCI Yeast Anticancer Drug Screen. Data for the cln2 rad14 strain (AID 165);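 note: 0% = growth equal to vehicle treated cultures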
- assay context: S. cerevisiae cln2 rad14 strain, at 50.0 µM (retest, dose inferred, filed as 5.0)
- Procedure: Growth inhibition of yeast strains with defined genetic alterations is measured as a screen for potential anti-cancer activity. Selected strains with alterations in DNA damage repair or cell cycle control were exposed to compounds and growth inhibition was measured relative to vehicle treated controls. The strain used in this assay is cln2 rad14
This is part of a sample that, as a whole, favours compounds with a hit. Of some 79,000 tested, about 15% had one in any assay. Calls of active or inactive are those of the source. Cut-off read from the data, not from the text of the source: active = growth inhibition above about 70%; inactive = the rest.
Your response should consist of one outcome taken from active, inactive

[
  {
    "compound": "CCN(CC)CCNC(=O)c1ccc2c(c1O)C(=O)c1ccccc1C2=O",
    "group label": "inactive"
  }
]

Test call for this compound, please: CCN(CC)CCC(=O)NC1c2ccc(Cl)cc2Oc2c(C)cccc21 (stereo unspecified)
inactive

Answer briefly: the call reported for O=[N+]([O-])c1ccc(/C=N/NC2=CS(=O)(=O)C=C2)cc1 in this assay.
inactive

Lab log entry: CCOC(=O)C1=C(C)Oc2cc3c(cc2C1c1cc(OC)c(OC)c(OC)c1)OCO3 (stereo unspecified) — outcome as called in the assay?
active

Record request — test call for C(=N\N=C\c1ccc2c(c1)OCO2)/c1ccc2c(c1)OCO2
inactive

What is the recorded call for this compound in the test? [N-]=[N+]=CC(=O)c1ccc(C(=O)C=[N+]=[N-])cc1
active

Which outcome was entered for the compound C=CCN1CCC(OC(=O)C(O)(C#CC)C2CCCC2)CC1 (stereo unspecified) in this test?
active

Which outcome was entered for the compound O=C(OC1=C(Br)C(=O)c2ccccc2C1=O)c1ccccc1 in this test?
inactive

In this assay, the call recorded for CCOC(=O)C1=C(Nc2ccc(Cl)c(Cl)c2)OC/C1=N\NS(=O)(=O)c1ccc(C)cc1 was what?
inactive

Could you please tell me the result logged for N#CC1Sc2ccccc2N1C(=O)Oc1ccccc1 (stereo unspecified) in this assay?
active

Outcome logged for [N-]=[N+]=Nc1c(-c2ccccc2)c(Cl)nc2ccccc12 in this assay:
active
